The reported numbers originate from PubChem BioAssay (Tox21).

Target: D(2) dopamine receptor (Homo sapiens)
Assay: Dopamine D2 receptor (DRD2) small molecule agonists, cell-based qHTS assay (AID 1963594); note: nearly all actives have a fitted effect of over 35% in size
Settings: HEK293-DRD2 cAMP HTRF, agonist mode, 30 min; series mostly up to 92.4 µM
Protocol: National Center for Advancing Translational Sciences [NCATS] Division of Preclinical Innovation [DPI] U.S. Environmental Protection Agency [EPA] National Institutes of Environmental Health Sciences [NIEHS] National Toxicology Program [NTP] […] DRD2-Hek293 cells were dispensed at 600 cells/3uL/well in 1536-well white plates using a Multidrop Dispenser. […] The fluorescence intensity in the plates was measured at 340 nm excitation and 665 & 620 nm emission by an Envision plate reader.
Inconclusive results are not listed. Activity calls are given as the source filed them. Calls come from the whole dose curve.

{"columns": ["MOLECULE", "outcome"],
 "data": [
  ["Cc1[nH]c(=O)c(C#N)cc1-c1ccncc1", "inactive"],
  ["CC1=C(/C=C/C(C)=C/C=C/C(C)=C/CO)C(C)(C)CCC1", "inactive"],
  ["CC(C)CC(=O)CC(C)CC(C)C (centres undefined)", "inactive"],
  ["COc1cc(OC)c(C(=O)CCCN2CCCC2)c(OC)c1", "inactive"],
  ["COc1ccc([N+](=O)[O-])cc1N", "inactive"],
  ["CSc1ccc(Cl)cc1", "inactive"],
  ["NCCN1CCNCC1", "inactive"],
  ["O=C(O)c1cccc(C(=O)O)c1", "inactive"],
  ["CCCCOCCOCCO", "inactive"],
  ["C=C[C@@]1(C)CC(=O)[C@]2(O)[C@@]3(C)[C@@H](O)CCC(C)(C)[C@@H]3[C@H](O)[C@H](OC(C)=O)[C@@]2(C)O1", "inactive"],
  ["NC(=O)c1ccccc1O", "inactive"],
  ["CCC(=O)O", "inactive"],
  ["CCCc1c(OCCCCc2nn[nH]n2)ccc(C(C)=O)c1O", "inactive"],
  ["O=S(=O)(O)NC1CCCCC1", "inactive"],
  ["CCc1ccc(O)cc1", "inactive"],
  ["CC(O)COc1ccccc1 (centres undefined)", "inactive"],
  ["CCCCCC(=O)O", "inactive"],
  ["CC1=NN(c2ccccc2)C(=O)C1", "inactive"],
  ["c1ccc2[nH]ccc2c1", "inactive"],
  ["CCCCC/C=C\\C/C=C\\CCCCCCCC(=O)OC", "inactive"],
  ["CCCCCCCCCC(=O)O", "inactive"],
  ["NNCCc1ccccc1", "inactive"],
  ["C#C[C@]1(O)CC[C@H]2[C@@H]3CCC4=Cc5oncc5C[C@]4(C)[C@H]3CC[C@@]21C", "inactive"],
  ["CCCCCCCCCCCCc1ccccc1", "inactive"],
  ["Cc1ccccc1C=O", "inactive"],
  ["CCCCC/C(C=O)=C\\c1ccccc1", "inactive"],
  ["Clc1ccc(Sc2cc(Cl)c(Cl)cc2Cl)cc1", "inactive"],
  ["CCCCC(C=O)CC (centres undefined)", "inactive"],
  ["O=C(OCc1ccccc1)c1ccc(O)cc1", "inactive"],
  ["O=C1c2c(O)cccc2Cc2cccc(O)c21", "inactive"],
  ["CC/C=C(\\C(=O)N[C@@H]1C(=O)N2C(C(=O)OCOC(=O)C(C)(C)C)=C(COC(N)=O)CS[C@H]12)c1csc(N)n1", "inactive"],
  ["NC(=O)N/N=C/c1ccc([N+](=O)[O-])o1", "inactive"],
  ["CCCCCCCCCCC=CC1CC(=O)OC1=O (centres undefined)", "inactive"],
  ["Nc1cc(Cl)c(-c2cc(Cl)c(N)cc2Cl)cc1Cl", "inactive"],
  ["CCNc1ccccc1", "inactive"],
  ["Cc1c(OCC(F)(F)F)ccnc1CS(=O)c1nc2ccccc2[nH]1 (centres undefined)", "inactive"],
  ["CCc1cccc2c3c([nH]c12)C(CC)(CC(=O)O)OCC3 (centres undefined)", "inactive"],
  ["C=C(C)C(=O)O[C@H]1C[C@@H]2CC[C@@]1(C)C2(C)C", "inactive"],
  ["C=C(C)OC(C)=O", "inactive"],
  ["c1ccc2[nH]cnc2c1", "inactive"],
  ["COCCOCCOCCO", "inactive"],
  ["Clc1ccc(Cl)c(Cl)c1Cl", "inactive"],
  ["O=C(Cl)c1cccc(C(=O)Cl)c1", "inactive"],
  ["CC(C)c1ccc(C(C)C)cc1", "inactive"],
  ["CC(=O)Nc1c(I)c(NC(C)=O)c(I)c(C(=O)O)c1I", "inactive"],
  ["CCc1ccc(CCOc2ccc(CC3SC(=O)NC3=O)cc2)nc1 (centres undefined)", "inactive"],
  ["CCCCCCCC(=O)O", "inactive"],
  ["CNNCc1ccc(C(=O)NC(C)C)cc1", "inactive"],
  ["CCCCNS(=O)(=O)c1ccccc1", "inactive"],
  ["O=C(O)/C=C\\C(=O)O", "inactive"],
  ["O=C1NS(=O)(=O)c2ccccc21", "inactive"],
  ["CC(=O)C(=O)O", "inactive"],
  ["CCCC(C)=O", "inactive"],
  ["CC(=O)CCC(=O)O", "inactive"],
  ["CCCC(=O)O", "inactive"],
  ["CC1=C(/C=C/C(C)=C/C=C/C(C)=C/C(=O)Nc2ccc(O)cc2)C(C)(C)CCC1", "inactive"],
  ["CS(=O)(=O)c1ccc([C@@H](O)[C@@H](CO)NC(=O)C(Cl)Cl)cc1", "inactive"],
  ["C#C[C@]1(O)CC[C@H]2[C@@H]3CCc4cc(O)ccc4[C@H]3CC[C@@]21C", "inactive"],
  ["CC(C)=CCCC(C)CCO (centres undefined)", "inactive"]
]}
